B1: tRNA (parent)
chain: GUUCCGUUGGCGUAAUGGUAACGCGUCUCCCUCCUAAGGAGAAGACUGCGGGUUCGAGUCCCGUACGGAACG

- Variants of: B1
- RUN DESCRIPTION: yeast fitness, log relative to wild type (ln ratio); higher = fitter; tRNA-Arg(CCU), competitive growth, 37 C, 1 M NaCl
Binning scheme for yeast fitness (ln): LOW: < -0.3; MID: ≥ -0.3 and < -0.2; HIGH: ≥ -0.2

[[record]]
residue_codes = "AGUCCGUUGGCGUAAUGGUAACGCGUUUCCCUCCUAAGGAGAAGACUGCGGGUUCGAGUCCCGUAUGGGUCG [G1A U2G C27U C66U A69G A70U]"
discrete_label = "LOW"

[[record]]
residue_codes = "GUUCCGUUGGCGUAAUGGUAACGCGUCUCCCUCCUAAGGAGAAGACUGCGGGUUCGAGUCCCGUAUGGAAUG [C66U C71U]"
discrete_label = "HIGH"

[[record]]
residue_codes = "AGUCCGUUGGCGUAAUGGUAACGCGUUUCCCUCCUAAGGAGACGACUGCGGGUUCGAGUCCCGUACGGAUUG [G1A U2G C27U A43C A70U C71U]"
discrete_label = "HIGH"


Which bin, given its yeast fitness (ln), does GCUCCAUUGGCGUAAUGGUAACGCGUCUCCCUCCUAAGGAGACGAUUGCGGGUUCGAGUCCCGUAUGGAAUG [U2C G6A A43C C46U C66U C71U] occupy?
HIGH

Which bin, given its yeast fitness (ln), does AUUCCUUUGGCGUAAUGGUAACGCGUCUCCCUCCUAAGGAGACGACUGCGGGUUCGAGUCCCGUACGGAGCG [G1A G6U A43C A70G] occupy?
MID

Which bin, given its yeast fitness (ln), does GGUCCAUUGGCGUAAUGGUAACGCGUUUCCCUCCUAAGGAGACGACUGCGGGUUCGAGUCCCGUAUGGAACG [U2G G6A C27U A43C C66U] occupy?
HIGH
